Test system: Bacillus subtilis
Assay: Antimicrobial activity against Bacillus subtilis after 96 hr incubation
Format: functional
Parameters: concentration or dose not given beside the values
Lab note: anything with Inhibition below 20% is marked Yes; values at 20% or higher are marked No.

Here's an entry: `CCCCCCCCc1cc(C)oc(=O)c1` . Is its Inhibition below 20%?
No

Others:
Here's an entry: `CCCCc1cc(C)oc(=O)c1` . Is its Inhibition below 20%?
No

Would you kindly repeat that for `CCC/C=C/c1cc(C)oc(=O)c1` ?
Yes

Would you kindly repeat that for `CCCCC#Cc1cc(C)oc(=O)c1` ?
Yes

Would you kindly repeat that for `CCCCCCCc1cc(C)oc(=O)c1` ?
Yes

Would you kindly repeat that for `CCCCCCC#Cc1cc(C)oc(=O)c1` ?
Yes

Would you kindly repeat that for `COc1ccc(-c2cc(C)oc(=O)c2)cc1` ?
Yes

Would you kindly repeat that for `Cc1cc(C#Cc2ccccc2)cc(=O)o1` ?
No

Would you kindly repeat that for `Cc1ccc(-c2cc(C)oc(=O)c2)cc1` ?
No

Would you kindly repeat that for `CCCCCC#Cc1cc(C)oc(=O)c1` ?
No

Would you kindly repeat that for `CCCCCCc1cc(C)oc(=O)c1` ?
No
